The following compounds are listed with their measured pKi values.
Biological target: UniProtKB P34975
Assay: biochemical
Format: cell-based, HEK293
Description: Inhibition of [3H]U-69593 binding to rat opioid receptor kappa 1 expressed in HEK 293 cells
Just the number, please; pKi means minus log10 of the concentration in mol/L.

For orientation, consider the following solved cases.
- COMPOUND: "CC(=O)O[C@H]1C[C@@H](CO)[C@]2(C)CC[C@H]3C(=O)O[C@H](c4ccoc4)C[C@]3(C)[C@H]2C1=O"
  TARGET: "UniProtKB P34975"
  pKi: 6.46
- COMPOUND: "COC(=O)[C@@H]1C[C@H](OC(C)=O)C(=O)[C@H]2[C@@]1(C)CCC1=CO[C@H](c3ccoc3)C[C@@]12C"
  TARGET: "UniProtKB P34975"
  pKi: 8.22
- COMPOUND: "COC(=O)[C@@H]1C[C@H](OC(C)=O)C(=O)[C@H]2[C@@]1(C)CC[C@H]1C(=O)O[C@H](C3CCOC3)C[C@]21C (stereo partly specified)"
  TARGET: "UniProtKB P34975"
  pKi: 6.81
- COMPOUND: "COC(=O)[C@@H]1C[C@H](OC(C)=O)[C@H](O)[C@H]2[C@@]1(C)CC[C@H]1C(=O)O[C@H](c3ccoc3)C[C@]21C [1-ALPHA-HYDROXYSALVINORIN A]"
  TARGET: "UniProtKB P34975"
  pKi: 5.95

Query: Tell me measured pKi for COC(=O)[C@@H]1C[C@H](OC(C)=O)C(=O)[C@@H]2[C@@]3(C)C[C@@H](c4ccoc4)OC[C@@H]3CC[C@]21C please.
Response: 8.22

----------
Molecular target: Kappa-type opioid receptor (Rattus norvegicus, UniProt P34975)
Sequence (P34975 whole entry): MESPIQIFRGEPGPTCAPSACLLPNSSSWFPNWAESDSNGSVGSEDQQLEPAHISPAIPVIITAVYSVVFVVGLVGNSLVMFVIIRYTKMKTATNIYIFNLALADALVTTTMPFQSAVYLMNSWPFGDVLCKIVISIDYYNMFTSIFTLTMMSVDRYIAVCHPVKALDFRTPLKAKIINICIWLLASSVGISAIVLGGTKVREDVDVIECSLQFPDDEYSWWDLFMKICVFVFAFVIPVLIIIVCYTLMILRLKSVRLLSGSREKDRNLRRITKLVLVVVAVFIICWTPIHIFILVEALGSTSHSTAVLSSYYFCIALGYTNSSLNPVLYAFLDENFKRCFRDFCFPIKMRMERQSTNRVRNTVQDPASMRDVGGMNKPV
Assay: Inhibition of [3H]diprenorphine binding to rat opioid receptor kappa 1 expressed in HEK 293 cells
Format: cell-based, HEK293
ENDPOINT: Ki

Query: Tell me measured Ki for COC(=O)C1=C[C@H](OC(C)=O)[C@H](O)[C@@H]2[C@@]3(C)C[C@@H](c4ccoc4)OC(=O)[C@@H]3CC[C@@]12C please.
Response: > 10 µM

----------
Organism: Rattus norvegicus
Experiment: Emax value against intracellular calcium mobilization in rat
Format: functional
The following molecules are listed with their measured Emax values.
A number alone suffices; assume %.

- MOLECULE: "COC(=O)[C@@H]1C[C@H](OC=O)C(=O)[C@H]2[C@@]1(C)CC[C@H]1C(=O)O[C@H](c3ccoc3)C[C@]21C"
  Emax, %: 108
- MOLECULE: "COC(=O)[C@@H]1C[C@H](OC(C)=O)C(=O)[C@H]2[C@@]1(C)CC[C@H]1C(O)O[C@H](c3ccoc3)C[C@]21C (stereo partly drawn)"
  Emax, %: 107
- MOLECULE: "COC(=O)[C@@H]1C[C@H](OC(C)=O)C(=O)[C@@H]2[C@@]3(C)C[C@@H](c4ccoc4)OC[C@@H]3CC[C@]21C"
  Emax, %: 103
- MOLECULE: "COC(=O)[C@@H]1C[C@H](OC(C)=O)C(=O)[C@@H]2[C@@]3(C)C[C@@H](c4ccoc4)OC(=O)[C@H]3CC[C@]21C [SALVINORIN A (ESTER)]"
  Emax, %: 78
- MOLECULE: "COC(=O)[C@@H]1C[C@H](OC(C)=O)C(=O)[C@H]2[C@@]1(C)CC[C@H]1C(=O)O[C@H](c3ccoc3)C[C@]21C [SALVINORIN A]"
  Emax, %: 100

Query: Tell me measured Emax for COC(=O)[C@@H]1C[C@H](OC(C)=O)C(=O)[C@H]2[C@@]1(C)CC[C@H]1C(=O)O[C@H](C3CCOC3)C[C@]21C (stereo partly drawn) please.
Response: 108

Query: Tell me measured Emax for COC(=O)[C@@H]1C[C@H](OC(C)=O)C[C@H]2[C@@]1(C)CC[C@H]1C(=O)O[C@H](c3ccoc3)C[C@]21C please.
Response: 122

Query: Tell me measured Emax for COC(=O)[C@@H]1C[C@H](OC(C)=O)C(=O)[C@H]2[C@@]1(C)CCC1=CO[C@H](c3ccoc3)C[C@@]12C please.
Response: 103
